# target-of-assay: T1, human IL-2Rβ (human, UniProt P14784 27-240, limits assumed)
# T1 construct: also called hIL-2Rβ; IL-2 receptor beta
# T1 sequence (looked up): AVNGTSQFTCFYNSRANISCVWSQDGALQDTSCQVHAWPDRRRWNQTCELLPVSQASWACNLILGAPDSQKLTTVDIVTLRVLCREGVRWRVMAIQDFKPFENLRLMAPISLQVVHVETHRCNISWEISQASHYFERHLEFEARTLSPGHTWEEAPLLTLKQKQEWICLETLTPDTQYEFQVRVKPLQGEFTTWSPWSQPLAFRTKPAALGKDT
# experiment-notes: SPR, steady state
pKd: −log10 of the molar value.
Measured pKd, listed per entry for reference.
test-readout: pKd

binder="hIL-15 V49R/L69D (ligand) NWVNVISDLKKIEDLIQSMHIDATLYTESDVHPSCKVTAMKCFLLELQRISLESGDASIHDTVENLIIDANNSLSSNGNVTESGCKECEELEEKNIKEFLQSFVHIVQMFINTGGGGSGHHHHHHHHGGGLNDIFEAQKIEWHE" test_readout=pKd assay_value="< 6.30"
binder="hIL-15 V49R/I111S (ligand) NWVNVISDLKKIEDLIQSMHIDATLYTESDVHPSCKVTAMKCFLLELQRISLESGDASIHDTVENLIILANNSLSSNGNVTESGCKECEELEEKNIKEFLQSFVHIVQMFSNTGGGGSGHHHHHHHHGGGLNDIFEAQKIEWHE" test_readout=pKd assay_value="< 6.30"
binder="hIL-15 V49R/K10G (ligand) NWVNVISDLGKIEDLIQSMHIDATLYTESDVHPSCKVTAMKCFLLELQRISLESGDASIHDTVENLIILANNSLSSNGNVTESGCKECEELEEKNIKEFLQSFVHIVQMFINTGGGGSGHHHHHHHHGGGLNDIFEAQKIEWHE" test_readout=pKd assay_value="< 6.30"
